Compiled notes: published Kd values involving Mast/stem cell growth factor receptor Kit (Homo sapiens).
Give bare numbers, in nM.

CCc1ccc2c(c1)c(=O)c(C(=O)Nc1ccc(Oc3ncnc4cc(OC)c(OC)cc34)c(F)c1)c(C)n2C 1670
Cc1cc(NC(=O)c2ccc(C)c(Nc3nccc(-c4cccnc4)n3)c2)cc(-n2cnc(C)c2)c1 14

Now for a further compound.
# get_value(readout='Kd', item= `NC(=O)c1ccc(Nc2cc(-c3ccc(F)cc3)n[nH]2)cc1` )
111
